measurement target: PIK3CD (Human) (UniProt O00329)
Sequence (O00329 whole entry, looked up): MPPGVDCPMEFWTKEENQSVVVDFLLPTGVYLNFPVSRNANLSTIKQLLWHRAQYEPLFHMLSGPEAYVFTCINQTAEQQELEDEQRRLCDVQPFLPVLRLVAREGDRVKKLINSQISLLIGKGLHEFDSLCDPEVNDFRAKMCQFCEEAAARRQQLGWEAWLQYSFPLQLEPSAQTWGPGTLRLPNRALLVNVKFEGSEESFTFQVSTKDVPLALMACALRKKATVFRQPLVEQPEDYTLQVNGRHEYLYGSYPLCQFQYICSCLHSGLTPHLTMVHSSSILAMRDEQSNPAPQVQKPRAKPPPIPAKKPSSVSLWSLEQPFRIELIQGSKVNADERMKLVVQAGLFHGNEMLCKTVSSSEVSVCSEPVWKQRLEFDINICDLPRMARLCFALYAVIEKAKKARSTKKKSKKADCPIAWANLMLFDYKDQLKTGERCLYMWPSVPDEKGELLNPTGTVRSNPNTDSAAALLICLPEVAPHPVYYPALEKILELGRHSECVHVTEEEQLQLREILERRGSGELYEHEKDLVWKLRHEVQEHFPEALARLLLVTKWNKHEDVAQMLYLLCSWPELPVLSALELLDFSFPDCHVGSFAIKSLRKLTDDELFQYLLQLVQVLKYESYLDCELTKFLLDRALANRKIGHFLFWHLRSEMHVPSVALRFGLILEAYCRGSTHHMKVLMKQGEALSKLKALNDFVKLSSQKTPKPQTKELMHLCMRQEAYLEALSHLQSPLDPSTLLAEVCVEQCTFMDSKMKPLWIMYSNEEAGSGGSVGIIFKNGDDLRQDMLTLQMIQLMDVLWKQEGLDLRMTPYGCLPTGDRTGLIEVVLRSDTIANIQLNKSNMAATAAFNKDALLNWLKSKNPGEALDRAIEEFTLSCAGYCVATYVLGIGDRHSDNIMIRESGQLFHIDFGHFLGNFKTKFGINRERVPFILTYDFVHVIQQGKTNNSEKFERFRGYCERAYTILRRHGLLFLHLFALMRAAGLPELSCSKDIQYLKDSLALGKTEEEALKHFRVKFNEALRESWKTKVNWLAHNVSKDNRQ
pIC50: −log10 of the molar value.
Label y when pIC50 >= 7; otherwise n.

Example entries and their recorded answers appear below.
| compound | label |
| --- | --- |
| CCn1ncc(-c2nc3c(O[C@H]4CCNC4)ncnc3n2C)c1C | n |
| CCn1c(-c2cnc(C)nc2)nc2c(O[C@H]3CCN(C(=O)CC(C)(C)N)C3)ncnc21 | y |

In: Does `CCn1ncc(C(=O)N2CC[C@H](Oc3ncnc4c3nc(-c3cnn(CC)c3C)n4C)C2)c1C` have a reported pIC50 of at least 7?
Out: y

In: Entry to check: COC1CC(c2nc3c(O[C@H]4CCN(C(=O)OC(C)(C)C)C4)ncnc3n2C)C1 (some centres undefined)
Out: n

In: Entry to check: `CCn1c(-c2cnc(C)nc2)nc2c(O[C@H]3CN(C(=O)C4CC4)C[C@@H]3O)ncnc21`
Out: y

In: Entry to check: `CCn1ncc(-c2nc3c(O[C@H]4CCN(C(=O)CC#N)C4)ncnc3n2C)c1C`
Out: y

In: Entry to check: `Cc1cc2cccc(-c3nc4c(O[C@H]5CCN(C(=O)OC(C)(C)C)C5)ncnc4n3C)c2[nH]1`
Out: n

In: Entry to check: `CCCN1CC[C@H](Oc2ncnc3c2nc(-c2cnn(CC)c2C)n3C)C1`
Out: n

In: Entry to check: `CCn1ncc(-c2nc3c(O[C@H]4CCN(S(=O)(=O)C(C)C)C4)ncnc3n2C)c1C`
Out: n

In: Entry to check: `CCn1ncc(-c2nc3c(O[C@H]4CCN(c5nccc6sccc56)C4)ncnc3n2C)c1C`
Out: y

In: Entry to check: `CCn1c(-c2cnc(C)nc2)nc2c(O[C@H]3CCN(C(=O)[C@@H]4CCC[C@H]4N)C3)ncnc21`
Out: y

###

In what follows, each item is paired with its pIC50 for PIK3CD (Human).
Answers are plain numbers, as −log10 of the molar value.

# per-item lookup of pIC50; items listed below
1. CCn1ncc(-c2nc3c(OC4CC(C)N(C(=O)OC(C)(C)C)C4)ncnc3n2C)c1C (centres undefined)
2. CCn1c(-c2cnc(C)nc2)nc2c(O[C@H]3CCN(C(=O)N(C)C4CC4)C3)ncnc21
3. CCn1ncc(-c2nc3c(O[C@H]4CCN(C(=O)c5ccnn5C)C4)ncnc3n2C)c1C
4. CCn1ncc(-c2nc3c(O[C@H]4CCN(S(=O)(=O)c5ccccc5)C4)ncnc3n2C)c1C

Out:
1: 5.89; 2: 7.55; 3: 7.66; 4: 6.44

###

measurement target: PIK3CD (Human)
pIC50: −log10 of the molar value.
Label t when pIC50 >= 8; otherwise f.

| compound | label |
| --- | --- |
| CCn1c(-c2cnc(C)nc2)nc2c(O[C@H]3CCN(C(=O)N4CC(O)C4)C3)ncnc21 | t |

In: Does `CCn1ncc(-c2nc3c(O[C@H]4CCN(c5cc(C(F)(F)F)ccn5)C4)ncnc3n2C)c1C` have a reported pIC50 of at least 8?
Out: f

In: Entry to check: `CCn1c(-c2cnc(C(C)(C)C)s2)nc2c(O[C@H]3CCN(C(=O)OC(C)(C)C)C3)ncnc21`
Out: t

In: Entry to check: `CCn1ncc(-c2nc3c(O[C@H]4CCN(C(=O)Nc5cccc(C)c5)C4)ncnc3n2C)c1C`
Out: f

In: Entry to check: `CCn1ncc(-c2nc3c(O[C@H]4CCN(C(=O)Oc5cccc(C(F)(F)F)c5)C4)ncnc3n2C)c1C`
Out: f

In: Entry to check: `CCn1c(-c2cnc(C)nc2)nc2c(O[C@H]3CCN(C(=O)C4CC4)C3)ncnc21`
Out: t

###

measurement target: PIK3CD (Human) (UniProt O00329)
fulfilled if IC50 is below 80 nM. not fulfilled if not; exact matches included in not fulfilled.

Example entries and their recorded answers appear below.
| compound | measurement target | label |
| --- | --- | --- |
| CCc1oncc1C(=O)N1CC[C@H](Oc2ncnc3c2nc(-c2cnn(CC)c2C)n3C)C1 | PIK3CD (Human) (UniProt O00329) | fulfilled |
| CCn1c(-c2cnc(OC)c(F)c2)nc2c(O[C@H]3CCN(C(=O)C4CCOCC4)C3)ncnc21 | PIK3CD (Human) (UniProt O00329) | fulfilled |
| CCn1c(-c2cnc(C)nc2)nc2c(O[C@H]3CCN(C(=O)N4CCC(F)(F)C4)C3)ncnc21 | PIK3CD (Human) (UniProt O00329) | fulfilled |
| CCn1ncc(-c2nc3c(O[C@H]4CCN(S(=O)(=O)c5ccc(-c6ccccc6)cc5)C4)ncnc3n2C)c1C | PIK3CD (Human) (UniProt O00329) | not fulfilled |

In: Consider `CCC(=O)N1CC[C@H](Oc2ncnc3c2nc(-c2cnn(CC)c2C)n3C2CC2)C1` . Does its IC50 lie strictly below 80 nM?
Out: not fulfilled

In: Entry to check: `CCn1ncc(-c2nc3c(O[C@H]4CCN(S(=O)(=O)c5ccc6ccccc6c5)C4)ncnc3n2C)c1C`
Out: not fulfilled

In: Entry to check: `CCn1ncc(-c2nc3c(O[C@H]4CCN(C(=O)OC)C4)ncnc3n2C)c1C`
Out: fulfilled

In: Entry to check: CCn1ncc(-c2nc3c(OC4CCN(C(=O)C5CCCCC5)C4)ncnc3n2C)c1C (centres undefined)
Out: fulfilled

###

In what follows, each item is paired with its pIC50 for PIK3CD (Human) (UniProt O00329).
Answers are plain numbers, as −log10 of the molar value.

Answered examples (2):
| compound smiles | pIC50 |
| --- | --- |
| CCn1ncc(-c2nc3c(S[C@H]4CCN(C(=O)c5coc(C)n5)C4)ncnc3n2C)c1C | 7.60 |
| CCn1ncc(-c2nc3c(O[C@H]4CCN(C(=O)c5cc(C(C)C)n[nH]5)C4)ncnc3n2C)c1C | 6.96 |

# per-item lookup of pIC50; items listed below
1. CCn1ncc(-c2nc3c(O[C@H]4CCN(C(=O)OCC(C)(C)C)C4)ncnc3n2C)c1C
2. CCn1c(-c2cnc(C)nc2)nc2c(O[C@H]3CCN(S(=O)(=O)CC)C3)ncnc21

Out:
1. 7.55
2. 6.77

###

measurement target: PIK3CD (Human)
pIC50: −log10 of the molar value.
Label satisfied when pIC50 >= 7; otherwise not satisfied.

| molecule | measurement target | label |
| --- | --- | --- |
| CCn1ncc(-c2nc3c(O[C@H]4CCN(C(=O)C(C)C)C4)ncnc3n2C)c1C | PIK3CD (Human) | satisfied |
| CCC(=O)N1CC[C@H](Oc2ncnc3c2nc(-c2cnc4[nH]ccc4c2)n3C)C1 | PIK3CD (Human) | satisfied |
| CCn1c(-c2cnc(C)nc2)nc2c(O[C@H]3CCN(C(=O)C4CC4C)C3)ncnc21 (some centres undefined) | PIK3CD (Human) | satisfied |
| CCn1ncc(-c2nc3c(O[C@H]4CCN(C(=O)c5cc6occc6[nH]5)C4)ncnc3n2C)c1C | PIK3CD (Human) | not satisfied |
| CCn1ncc(-c2nc3c(O[C@H]4CCN(S(=O)(=O)c5cn(C)cn5)C4)ncnc3n2C)c1C | PIK3CD (Human) | not satisfied |

In: Does `CCC(=O)N1CC[C@H](Oc2ncnc3c2nc(C(F)(F)F)n3C)C1` have a reported pIC50 of at least 7?
Out: not satisfied

In: Entry to check: `CCC(=O)N[C@H]1CC[C@H](Oc2ncnc3c2nc(-c2cnc(C)nc2)n3CC)CC1`
Out: not satisfied

In: Entry to check: `CCn1ncc(-c2nc3c(O[C@H]4CCN(C(=O)C5(C)CCOCC5)C4)ncnc3n2C)c1C`
Out: satisfied

###

measurement target: PIK3CD (Human) (UniProt O00329)
pIC50: −log10 of the molar value.
Label condition met when pIC50 >= 8; otherwise condition not met.

Example entries and their recorded answers appear below.
| compound smiles | measurement target | label |
| --- | --- | --- |
| CCC(=O)N1CC[C@H](Oc2ncnc3c2nc(-c2cnn(CC)c2C)n3CC(F)F)C1 | PIK3CD (Human) (UniProt O00329) | condition met |
| CCn1ncc(-c2nc3c(S[C@H]4CCN(C(=O)C5CCOCC5)C4)ncnc3n2C)c1C | PIK3CD (Human) (UniProt O00329) | condition not met |
| CCn1c(N(C)C(C)C)nc2c(O[C@H]3CCN(C(=O)OC(C)(C)C)C3)ncnc21 | PIK3CD (Human) (UniProt O00329) | condition not met |

# evaluate next
In: Does `CCn1ncc(-c2nc3c(O[C@H]4CCN(c5cncc(C)n5)C4)ncnc3n2C)c1C` have a reported pIC50 of at least 8?
Out: condition not met

###

measurement target: PIK3CD (Human) (UniProt O00329)
Would you mind classing the entries by IC50? Ranges: band A: < 0.009 µM; band B: ≥ 0.009 µM and < 0.04 µM; band C: ≥ 0.04 µM

In: The entry to classify is `CCn1c(-c2cnc(C)nc2)nc2c(OC3CCN(C(=O)N(C)c4ccccc4)CC3)ncnc21` ; which class holds it?
Out: band C
